The measured values listed here are drawn from patent US8338565B2.

# IC50 annotations
Target: TNFα / TNFα receptor (TNFα R1/Fc) (Homo sapiens)
Construct: purchased R&D Systems
Sequence (P01375 77-233 limits assumed, species assumed): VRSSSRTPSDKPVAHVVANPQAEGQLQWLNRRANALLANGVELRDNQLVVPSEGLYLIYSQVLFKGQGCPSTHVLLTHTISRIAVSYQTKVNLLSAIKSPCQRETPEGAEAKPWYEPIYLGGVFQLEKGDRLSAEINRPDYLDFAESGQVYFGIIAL
Test: Inhibition of binding of TNFα to the TNFα receptor (plate ELISA competition)
Details: Table 2; read-out: Activity (IC50, inhibition of TNFα binding to TNFα R1/Fc)
Numbered stars: 1 amine (or outer) side, 2 acyl side, 3 side chain; on linkers, the order of the positions; unused ones are H or OH. Bridge positions count the residues as written; N and C are the ends. Square brackets hold non-standard residues; d marks the D form. Peptide text beside a SMILES is read from it. Tartaroyl(2R,3R-(OAc)2) = CC(=O)O[C@@H](C(=O)[*:1])[C@@H](OC(C)=O)C(=O)[*:2]; Bip = N[C@@H](Cc1ccc(-c2ccccc2)cc1)C(=O)O; dPhe(4-NH2) = Nc1ccc(C[C@@H](N)C(=O)O)cc1; Phe(4-Br) = N[C@@H](Cc1ccc(Br)cc1)C(=O)O; Phe(4-NH2) = Nc1ccc(C[C@H](N)C(=O)O)cc1; dAla(2-furyl) = N[C@H](Cc1ccco1)C(=O)O; d(hPhe) = N[C@H](CCc1ccccc1)C(=O)O; Suc = O=C(CCC(=O)[*:2])[*:1]

# example entries with known answers
| Compound | Measurement target | Reported value |
| --- | --- | --- |
| O=C1CCC(=O)N[C@H](Cc2ccccc2)C(=O)N[C@@H](Cc2ccc(-c3ccccc3)cc2)C(=O)N[C@H](CCc2ccccc2)C(=O)N[C@H](C(=O)O)Cc2ccc(cc2)N1 [Compound 454] ([dF][Bip][d(hPhe)][Phe(4-NH2)]-OH; linker N-4 via Suc) | TNFα / TNFα receptor (TNFα R1/Fc) (Homo sapiens) | 10 to 30 µM |
| O=C(O)CCCNC(=O)[C@@H]1Cc2ccc(cc2)OCC(=O)N[C@@H](Cc2ccncc2)C(=O)N[C@H](Cc2ccc(-c3ccccc3)cc2)C(=O)N[C@@H](Cc2ccccc2F)C(=O)N1 | TNFα / TNFα receptor (TNFα R1/Fc) (Homo sapiens) | < 10 µM |
| O=C1COc2ccc(cc2)C[C@@H](C(=O)O)NC(=O)[C@H](CCc2ccccc2)NC(=O)[C@@H](Cc2ccc(-c3ccccc3)cc2)NC(=O)[C@H](Cc2ccc(-c3ccccc3)cc2)N1 | TNFα / TNFα receptor (TNFα R1/Fc) (Homo sapiens) | < 10 µM |
| O=C1COc2ccc(cc2)C[C@@H](C(=O)N[C@@H](Cc2ccc(O)cc2)C(=O)O)NC(=O)[C@H](Cc2ccccc2)NC(=O)[C@@H](Cc2ccc(-c3ccccc3)cc2)NC(=O)[C@H](Cc2cccs2)N1 | TNFα / TNFα receptor (TNFα R1/Fc) (Homo sapiens) | > 100 µM |
| CC(=O)N[C@H]1CC(=O)N[C@H](Cc2cccs2)C(=O)N[C@@H](Cc2ccc(-c3ccccc3)cc2)C(=O)N[C@H](Cc2ccccc2)C(=O)N[C@H](C(=O)O)Cc2ccc(cc2)NC1=O | TNFα / TNFα receptor (TNFα R1/Fc) (Homo sapiens) | > 100 µM |

For the next question, use this compound.
Answer with the recorded IC50 of CC(=O)O[C@H]1C(=O)Nc2ccc(cc2)C[C@H](C(=O)O)NC(=O)[C@@H](Cc2ccco2)NC(=O)[C@H](Cc2ccc(Br)cc2)NC(=O)[C@@H](Cc2ccccc2)NC(=O)[C@@H]1OC(C)=O [Compound 160] ([dF][Phe(4-Br)][dAla(2-furyl)][dPhe(4-NH2)]-OH; linker N-4 via Tartaroyl(2R,3R-(OAc)2)) only.
30 to 100 µM
